Reported EC50 values for the following molecules.
Target: F508delCFTR cell surface expression in CFBE41o-F508delCFTR-HRP cells (Homo sapiens, UniProt P13569, DEL508-508)
Construct: fused on or other part: Horseradish peroxidase (HRP) reporter inserted in the fourth exofacial (extracellular) loop of CFTR; expression is doxycycline-inducible
Sequence (P13569 with tags, fused parts or gaps DEL508-508 limits assumed): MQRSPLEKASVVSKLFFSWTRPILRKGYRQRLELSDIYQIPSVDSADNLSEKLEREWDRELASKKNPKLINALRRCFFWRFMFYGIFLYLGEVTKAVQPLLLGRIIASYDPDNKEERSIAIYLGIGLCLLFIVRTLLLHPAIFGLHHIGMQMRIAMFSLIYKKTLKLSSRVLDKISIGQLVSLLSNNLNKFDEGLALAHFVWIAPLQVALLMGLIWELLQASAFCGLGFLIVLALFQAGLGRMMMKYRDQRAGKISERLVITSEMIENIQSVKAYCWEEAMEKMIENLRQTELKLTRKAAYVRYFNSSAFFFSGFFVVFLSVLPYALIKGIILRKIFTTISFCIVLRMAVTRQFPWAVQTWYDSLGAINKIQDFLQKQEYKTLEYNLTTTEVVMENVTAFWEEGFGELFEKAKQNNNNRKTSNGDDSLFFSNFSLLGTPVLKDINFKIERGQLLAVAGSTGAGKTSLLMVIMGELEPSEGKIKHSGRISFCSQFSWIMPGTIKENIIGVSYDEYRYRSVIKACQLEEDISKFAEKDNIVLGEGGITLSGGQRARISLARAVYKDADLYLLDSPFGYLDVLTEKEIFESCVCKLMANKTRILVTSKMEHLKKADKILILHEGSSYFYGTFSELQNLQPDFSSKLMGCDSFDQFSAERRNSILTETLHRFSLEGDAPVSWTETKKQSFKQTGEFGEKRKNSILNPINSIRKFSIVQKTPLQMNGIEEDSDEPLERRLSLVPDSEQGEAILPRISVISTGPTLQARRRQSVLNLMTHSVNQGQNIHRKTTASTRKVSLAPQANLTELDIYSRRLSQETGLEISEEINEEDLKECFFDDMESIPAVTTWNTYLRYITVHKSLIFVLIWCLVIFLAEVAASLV
Sequence (P13569 919-1480 limits assumed, stated change not applied): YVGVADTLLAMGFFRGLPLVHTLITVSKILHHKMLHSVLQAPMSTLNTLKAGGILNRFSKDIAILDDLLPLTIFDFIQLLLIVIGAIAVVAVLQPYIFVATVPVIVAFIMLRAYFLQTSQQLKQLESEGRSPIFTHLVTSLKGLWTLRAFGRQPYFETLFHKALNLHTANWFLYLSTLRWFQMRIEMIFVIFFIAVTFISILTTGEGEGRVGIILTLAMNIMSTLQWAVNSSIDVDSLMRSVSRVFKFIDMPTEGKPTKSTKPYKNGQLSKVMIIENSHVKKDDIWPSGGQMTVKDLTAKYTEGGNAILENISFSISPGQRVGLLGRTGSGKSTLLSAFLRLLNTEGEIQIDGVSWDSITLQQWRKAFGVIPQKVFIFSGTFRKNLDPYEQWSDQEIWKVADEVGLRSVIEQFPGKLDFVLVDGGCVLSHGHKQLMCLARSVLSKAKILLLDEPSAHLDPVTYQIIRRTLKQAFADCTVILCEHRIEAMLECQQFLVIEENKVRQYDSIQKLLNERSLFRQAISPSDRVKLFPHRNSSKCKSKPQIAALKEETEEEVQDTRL
Assay: Cell Surface Expression-Horse Radish Peroxidase (CSE-HRP) Assay
Conditions: CFBE41o-F508delCFTR-HRP cells, 18-24 hours at 33° C., 8-point curve, highest concentration 20 μM
Procedure: Cell Surface Expression-Horse Radish Peroxidase (CSE-HRP) Assay: A cellular assay for measuring the F508delCFTR cell surface expression after correction with test compounds was developed in human lung derived epithelial cell line (CFBE41o-) (Veit G et al, (2012) Mol Biol Cell. 23(21): 4188-4202). […] The raw counts from the experiment are analyzed using Accelrys® Assay Explorer v3.3. […]
recorded_metric: EC50 (nM)

molecule | recorded_metric | value_relation_sign | value_observed
Cc1ccc(NC(=O)[C@]2(C)COc3cc4c(cc32)OC(F)(F)O4)nc1-c1cccc(C(=O)O)c1 [Example 4] | EC50 | > | 20000
C[C@]1(C(=O)Nc2cc3cc(C4(CO)CCC4)[nH]c3cc2F)COc2cc3c(cc21)OC(F)(F)O3 [Example 172] | EC50 | = | 950
C[C@]1(C(=O)N[C@@H]2C[C@H]([C@H]3CC[C@H](C(=O)O)CC3)Oc3cc(OC(F)(F)F)ccc32)COc2cc3c(cc21)OC(F)(F)O3 [Example 150] | EC50 | = | 26
COc1ccc2c(c1)O[C@@H](c1cnc(CO)cn1)C[C@H]2NC(=O)[C@@]1(C)COc2cc3c(cc21)OC(F)(F)O3 [Example 173] | EC50 | = | 90
C[C@]1(C(=O)Nc2cccc(-c3cc(C(=O)O)cs3)n2)COc2cc3c(cc21)OC(F)(F)O3 [Example 86] | EC50 | = | 2840
COc1ccc2c(c1)O[C@@H](c1ccc(C(=O)NC3CCNC(=O)C3)cn1)C[C@H]2NC(=O)[C@@]1(C)COc2cc3c(cc21)OC(F)(F)O3 (stereo partly shown) [Example 232] | EC50 | = | 260
C[C@]1(C(=O)Nc2cccc(F)n2)COc2cc3c(cc21)OC(F)(F)O3 [Example 85] | EC50 | = | 6690

* * *

Target: F508delCFTR cell surface expression in CFBE41o-F508delCFTR-HRP cells (Homo sapiens, UniProt P13569, DEL508-508)
Construct: fused on or other part: Horseradish peroxidase (HRP) reporter inserted in the fourth exofacial (extracellular) loop of CFTR; expression is doxycycline-inducible
Assay: Cell Surface Expression-Horse Radish Peroxidase (CSE-HRP) Assay
Assay type: cell-based
Settings: maximum at any tested concentration, normalized to on-plate positive control (3 μM)

molecule | Maximum % activity (%)
C[C@]1(C(=O)Nc2cccc(N3CC[C@H](C(=O)O)C3)n2)COc2cc3c(cc21)OC(F)(F)O3 | 127
C[C@]1(C(=O)N[C@H]2C[C@@H](C3(C(=O)N(CCO)CCO)CC3)Oc3cc(OC(F)(F)F)ccc32)COc2cc3c(cc21)OC(F)(F)O3 | 10
CC1(C)OC[C@H]([C@@H](O)Cn2nc(-c3ccccc3)cc(NC(=O)[C@@]3(C)COc4cc5c(cc43)OC(F)(F)O5)c2=O)O1 | 16
C[C@]1(C(=O)N[C@@H]2C[C@H]([C@H]3CC[C@H](C(=O)N4C[C@H](O)[C@@H](O)C4)CC3)Oc3cc(OC(F)(F)F)ccc32)COc2cc3c(cc21)OC(F)(F)O3 | 168
CC(C)(C)c1cc2cc(NC(=O)[C@@]3(C)COc4cc5c(cc43)OC(F)(F)O5)ccc2[nH]1 | 173
Cc1ccc(NC(=O)[C@]2(C)CCc3c2ccc2c3OCO2)cc1-c1cccc(C(=O)O)c1 (single isomer, unassigned) | 83

* * *

Biological target: F508delCFTR cell surface expression in CFBE41o-F508delCFTR-HRP cells (Homo sapiens, UniProt P13569, DEL508-508)
Construct: fused on or other part: Horseradish peroxidase (HRP) reporter inserted in the fourth exofacial (extracellular) loop of CFTR; expression is doxycycline-inducible
Assay: Cell Surface Expression-Horse Radish Peroxidase (CSE-HRP) Assay
Assay type: cell-based
Conditions: maximum at any tested concentration, normalized to on-plate positive control (3 μM)
Protocol: Cell Surface Expression-Horse Radish Peroxidase (CSE-HRP) Assay: A cellular assay for measuring the F508delCFTR cell surface expression after correction with test compounds was developed in human lung derived epithelial cell line (CFBE41o-) (Veit G et al, (2012) Mol Biol Cell. 23(21): 4188-4202). […] The raw counts from the experiment are analyzed using Accelrys® Assay Explorer v3.3. […]

compound | Maximum % activity (%)
C[C@]1(C(=O)N[C@@H]2C[C@H](C3CCN(CC(=O)O)CC3)Oc3cc(OC(F)(F)F)ccc32)COc2cc3c(cc21)OC(F)(F)O3 [Example 187] | 129
COc1ccc2c(c1)O[C@@H](c1ccc(C(=O)NCC3CNC(=O)C3)cn1)C[C@H]2NC(=O)[C@@]1(C)COc2cc3c(cc21)OC(F)(F)O3 (stereo partly shown) [Example 231] | 103
CCOC(=O)C1([C@@H]2C[C@H](NC(=O)[C@@]3(C)COc4cc5c(cc43)OC(F)(F)O5)c3ccc(OC(F)(F)F)cc3O2)CC1 [Example 165] | 85
CC(C)(COCc1ccccc1)c1cc2cc(NC(=O)[C@@]3(C)COc4cc5c(cc43)OC(F)(F)O5)c(F)cc2[nH]1 [Example 204] | 134
C[C@]1(C(=O)N[C@H]2C[C@@H]([C@H]3CC[C@@H](C(=O)O)CC3)Oc3cc(OC(F)(F)F)ccc32)COc2cc3c(cc21)OC(F)(F)O3 [Example 161] | 101
C[C@]1(C(=O)Nc2cccc(N3CC4CCCC4(C(=O)O)C3)n2)COc2cc3c(cc21)OC(F)(F)O3 (stereo partly shown) [Example 117] | 147
CC(C)(C)OC(=O)N[C@H]1CC[C@H]([C@@H]2C[C@H](NC(=O)[C@@]3(C)COc4cc5c(cc43)OC(F)(F)O5)c3ccc(OC(F)F)cc3O2)CC1 [Example 198] | 106
COc1ccc2c(c1)O[C@@H](c1ccc(C(=O)NCCCC(N)=O)cn1)C[C@H]2NC(=O)[C@@]1(C)COc2cc3c(cc21)OC(F)(F)O3 [Example 228] | 108
COc1ccc2c(c1)O[C@@H](c1ccc(C(=O)N(CCO)CCO)cn1)C[C@H]2NC(=O)[C@@]1(C)COc2cc3c(cc21)OC(F)(F)O3 [Example 236] | 131
CCN(CCO)C(=O)c1ccc([C@H]2C[C@@H](NC(=O)[C@@]3(C)COc4cc5c(cc43)OC(F)(F)O5)c3ccc(OC)cc3O2)nc1 [Example 235] | 114
C[C@]1(C(=O)N[C@@H]2C[C@H](C3(C(=O)O)CC3)Oc3cc(OC(F)(F)F)ccc32)COc2cc3c(cc21)OC(F)(F)O3 [Example 166] | 129
Cc1ccc(NC(=O)[C@@]2(C)COc3cc4c(cc32)OC(F)(F)O4)nc1-c1cccc(C(=O)OC(C)(C)C)c1 [Example 5] | 137
COc1ccc2c(c1)O[C@@H](COC[C@H](O)CO)C[C@H]2NC(=O)[C@@]1(C)COc2cc3c(cc21)OC(F)(F)O3 [Example 274] | 99
C[C@]1(C(=O)Nc2cc(C3CC3)nn(-c3ccc(C(=O)O)cc3)c2=O)COc2cc3c(cc21)OC(F)(F)O3 [Example 32] | 144
CC1(C(=O)O)CN(c2cccc(NC(=O)[C@@]3(C)COc4cc5c(cc43)OC(F)(F)O5)n2)C1 [Example 96] | 139
C[C@]1(C(=O)Nc2cccc(N3CC[C@@H](C(=O)O)C3)n2)COc2cc3c(cc21)OC(F)(F)O3 [Example 9] | 135
C[C@@]1(C(=O)N[C@@H]2C[C@H]([C@H]3CC[C@H](C(=O)O)CC3)Oc3cc(OC(F)(F)F)ccc32)CCc2cc3c(cc21)OC(F)(F)O3 [Example 169] | 107
COc1ccc2c(c1)OC(c1ccc(OC[C@@H](O)CO)nn1)C[C@H]2NC(=O)[C@@]1(C)COc2cc3c(cc21)OC(F)(F)O3 (stereo partly shown) [Example 252] | 110
C[C@]1(C(=O)Nc2cccc(-c3cc(C(=O)O)ccc3F)n2)COc2cc3c(cc21)OC(F)(F)O3 [Example 128] | 172
COc1ccc2c(c1)O[C@@H](c1ccc(C(C)=O)cn1)C[C@H]2NC(=O)[C@@]1(C)COc2cc3c(cc21)OC(F)(F)O3 [Example 180] | 124
C[C@]1(C(=O)N[C@@H]2C[C@H]([C@H]3CC[C@H](C(=O)N4CCOCC4CO)CC3)Oc3cc(OC(F)(F)F)ccc32)COc2cc3c(cc21)OC(F)(F)O3 (stereo partly shown) [Example 257] | 170
COc1ccc2c(c1)O[C@@H](COCc1ccccc1)C[C@H]2NC(=O)[C@@]1(C)COc2cc3c(cc21)OC(F)(F)O3 [Example 276] | 117
C[C@]1(C(=O)N[C@@H]2C[C@H]([C@H]3CC[C@H](C(=O)O)CC3)Oc3cc(OC(F)F)ccc32)COc2cc3c(cc21)OC(F)(F)O3 [Example 160] | 136
COc1ccc2c(c1)O[C@@H](c1cccc(C(=O)O)c1)C[C@H]2NC(=O)C1(C)COc2cc3c(cc21)OC(F)(F)O3 (stereo partly shown) [Example 11] | 166
COc1ccc2c(c1)O[C@@H](c1ccc(C(=O)N(C)CCO)cn1)C[C@H]2NC(=O)[C@@]1(C)COc2cc3c(cc21)OC(F)(F)O3 [Example 234] | 112
